These entries and their values trace back to patent US20120101083A1.

Hi there, I'd appreciate the recorded pEC50 for every entry that follows.
tgt: S1P1 receptor (S1P1 expressing RH7777 membranes) (Homo sapiens, UniProt P21453)
Construct: expressed in transfected cells; host or cells: RH7777 cells (membranes)
Sequence (P21453 whole entry): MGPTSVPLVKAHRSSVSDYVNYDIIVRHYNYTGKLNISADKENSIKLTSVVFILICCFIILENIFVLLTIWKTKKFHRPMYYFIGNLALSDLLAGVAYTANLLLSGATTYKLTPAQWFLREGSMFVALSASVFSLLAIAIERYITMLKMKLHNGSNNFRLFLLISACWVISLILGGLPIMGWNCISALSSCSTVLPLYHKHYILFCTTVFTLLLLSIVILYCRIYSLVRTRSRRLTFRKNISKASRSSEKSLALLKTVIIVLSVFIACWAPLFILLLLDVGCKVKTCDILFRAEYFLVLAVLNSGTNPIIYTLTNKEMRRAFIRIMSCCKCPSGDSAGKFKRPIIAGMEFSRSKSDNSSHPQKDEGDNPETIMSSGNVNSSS
assay_text: S1P1 GTPγS assay
Assay type: biochemical
reported_conditions: tested in one of the above S1P1 assays (two GTPγS formats)
pEC50: −log10 of the molar value. Structures can show the parent of a compound that is named as a salt.

Cc1c(-c2noc(-c3ccc(OC(C)C)c(C#N)c3)n2)ccc2c1CCN(C(=O)[C@@](C)(N)CO)C2: ≥ 6.00

Hi there! I need pEC50 for each item below, if you can.
1. Cc1c(-c2noc(-c3ccc(OC(C)C)c(C#N)c3)n2)ccc2c1CCN(CC(=O)N[C@H](C)CO)CC2
2. CC(C)Oc1ccc(-c2nc(-c3ccc4c(c3)CCN(CC(=O)NC[C@H](O)CO)CC4)no2)cc1C#N [Example 194, hydrochloride]
3. CC(C)Oc1ccc(-c2nc(-c3ccc4c(c3)CCN(C(=O)CNC[C@H](O)CO)CC4)no2)cc1C#N [Example 196, hydrochloride]
4. Cc1c(-c2nnc(-c3ccc(OC(C)C)c(C#N)c3)s2)ccc2c1CCN(CCCC(N)=O)C2
5. CC(C)Oc1ccc(-c2nc(-c3ccc4c(c3)CCN(C(CO)CO)CC4)no2)cc1C#N
6. CC(C)Oc1ccc(-c2nc(-c3cccc4c3CCN(CCCO)CC4)no2)cc1C#N

Key:
1: ≥ 7.00; 2: ≥ 7.00; 3: ≥ 6.00; 4: ≥ 6.00; 5: ≥ 7.00; 6: ≥ 7.00

###

tgt: S1P1 receptor (S1P1 expressing RH7777 membranes) (Homo sapiens, UniProt P21453)
Construct: expressed in transfected cells; host or cells: RH7777 cells (membranes)
assay_text: S1P1 GTPγS assay
Assay type: biochemical
reported_conditions: tested in one of the above S1P1 assays (two GTPγS formats)
Counter-ions that a name gives are not always drawn.
result_type: EC50

COC(=O)NCCN1CCc2ccc(-c3noc(-c4ccc(OC(C)C)c(C#N)c4)n3)cc2CC1: ≤ 10 nM

Kindly give each listed record's EC50.
1. CC(C)Oc1ccc(-c2nc(-c3cccc4c3CCN(CC(O)CO)CC4)no2)cc1C#N (stereo not shown) [Example 35, hydrochloride]
2. CC(C)Oc1ccc(-c2nc(-c3cccc4c3CCN(CC(O)CO)C4)no2)cc1C#N (stereo not shown)

Key:
["≤ 100 nM", "≤ 10 nM"]

Exercise: May I ask what EC50 has been recorded for CC(C)Oc1ncc(-c2nc(-c3ccc4c(c3)CCN(C[C@H](O)CO)CC4)no2)cc1C#N ?
Key: ≤ 10 nM

###

tgt: S1P1 receptor (S1P1 expressing RH7777 membranes) (Homo sapiens, UniProt P21453)
Construct: expressed in transfected cells; host or cells: RH7777 cells (membranes)
assay_text: S1P1 GTPγS assay
Type: biochemical
reported_conditions: tested in one of the above S1P1 assays (two GTPγS formats)
pEC50: −log10 of the molar value. Structures can show the parent of a compound that is named as a salt.
So I've got a bunch of compounds here, and I need their pEC50 values.

Consider the reported pEC50 for these compounds:
CC(C)Oc1ccc(-c2nc(-c3ccc4c(c3)CCN(C(=O)C(C)(C)N)CC4)no2)cc1C#N [Example 117]: ≥ 6.00
CC(C)Oc1ccc(-c2nc(-c3ccc4c(c3)CCN(C(=O)CN[C@H](C)CO)CC4)no2)cc1C#N [Example 98, hydrochloride]: ≥ 8.00
CNC(=O)CCCN1CCc2c(ccc(-c3noc(-c4ccc(OC(C)C)c(C#N)c4)n3)c2C)C1 [Example 5]: ≥ 7.00

Look at each compound and report its pEC50.
1. CC(C)Oc1ccc(-c2nnc(-c3ccc4c(c3)CCN(CCO)CC4)s2)cc1C#N [Example 28, hydrochloride]
2. CNCCC(=O)N1CCc2c(ccc(-c3noc(-c4ccc(OC(C)C)c(C#N)c4)n3)c2C)C1 [Example 40, hydrochloride]
3. Cc1c(-c2noc(-c3ccc(OC(C)C)c(C#N)c3)n2)ccc2c1CCN(C(=O)CCN)C2 [Example 39, hydrochloride]
4. Cc1c(-c2noc(-c3ccc(OC(C)C)c(C#N)c3)n2)ccc2c1CCN(CC(=O)NC[C@@H](C)O)C2 [Example 120, hydrochloride]
5. N#Cc1cc(-c2nc(-c3ccc4c(c3)CCN(C(=O)CN)CC4)no2)ccc1N1CCC(F)C1 (centres unmarked) [Example 57]

Key:
1: ≥ 6.00; 2: ≥ 7.00; 3: ≥ 7.00; 4: ≥ 8.00; 5: ≥ 6.00

Provide reported pEC50 for each item, in the same order as listed.
1. Cc1c(-c2noc(-c3ccc(OC(C)C)c(C#N)c3)n2)ccc2c1CCN(CCO)C2 [Example 7]
2. Cc1c(-c2noc(-c3ccc(OC(C)C)c(C#N)c3)n2)ccc2c1CCN(CC(=O)N[C@@H](C)CO)C2 [Example 119, hydrochloride]
3. Cc1c(-c2noc(-c3cnc(OC(C)C)c(C#N)c3)n2)ccc2c1CCN(C(CO)CO)C2 [Example 134, hydrochloride]

Key:
["≥ 7.00", "≥ 8.00", "≥ 7.00"]

Your task in this section: give pEC50 for each listed record.
1. CC(C)Oc1ccc(-c2nc(-c3ccc4c(c3)CCN(CC(=O)N[C@@H](C)CO)CC4)no2)cc1C#N [Example 80, hydrochloride]
2. CC(C)Oc1ccc(-c2nc(-c3ccc4c(c3)CCN(C(=O)CN3CCOCC3)CC4)no2)cc1C#N [Example 91, hydrochloride]
3. CNC(=O)CCCN1CCc2ccc(-c3noc(-c4ccc(OC(C)C)c(C#N)c4)n3)cc2CC1 [Example 24]

Key:
1. ≥ 7.00
2. ≥ 6.00
3. ≥ 7.00

###

tgt: S1P1 receptor (S1P1 expressing RH7777 membranes) (Homo sapiens, UniProt P21453)
Construct: expressed in transfected cells; host or cells: RH7777 cells (membranes)
assay_text: S1P1 GTPγS assay
Type: biochemical
reported_conditions: tested in one of the above S1P1 assays (two GTPγS formats)
Description: The potencies and efficacies of the compounds of this invention for the S1P1 receptor can be determined by GTPγS assay performed on the human cloned receptor as described herein. Membrane preparation for S1P1 GTPγS assay All steps were performed at 4° C. Cells were homogenised within a glass Waring blender for 2 bursts of 15 secs in 200 mls of buffer (50 mM HEPES, 1 mM leupeptin, 25 μg/ml bacitracin, 1 mM EDTA, 1 mM PMSF, 2 μM pepstatin A). […]
Counter-ions that a name gives are not always drawn.
result_type: EC50

Parameters: items (list). Returns: EC50 for each item.
1. CC(C)Oc1ccc(-c2nc(-c3ccc4c(c3)CCN(CCCC(N)=O)CC4)no2)cc1C#N
2. Cc1c(-c2noc(-c3ccc(OC(C)C)c(C#N)c3)n2)ccc2c1CCN(C(CO)CO)C2 [Example 66, hydrochloride]
3. CC(C)Oc1ccc(-c2nc(-c3cccc4c3CCN(CCO)CC4)no2)cc1C#N
4. Cc1c(-c2noc(-c3ccc(OC(C)C)c(C#N)c3)n2)ccc2c1CCN(CC(O)CO)C2 (stereo not drawn)

Key:
["≤ 0.1 µM", "≤ 0.1 µM", "≤ 0.1 µM", "≤ 0.1 µM"]

Each molecule below has a reported value. Please supply its EC50.
1. CCOc1ncc(-c2nc(-c3ccc4c(c3)CCN(C[C@H](O)CO)CC4)no2)cc1C#N
2. CC(C)Oc1ccc(-c2nc(-c3ccc4c(c3)CCN(C(=O)CN)CC4)no2)cc1C#N [Example 48, trifluoroacetate]
3. Cc1c(-c2noc(-c3ccc(OC(C)C)c(C#N)c3)n2)ccc2c1CCN(C(=O)CNCC(O)CO)CC2 (stereo not drawn)
4. COCCN1CCc2c(ccc(-c3nnc(-c4ccc(OC(C)C)c(C#N)c4)s3)c2C)C1 [Example 17, hydrochloride]
5. Cc1c(-c2noc(-c3ccc(OC(C)C)c(C#N)c3)n2)ccc2c1CCN(CC(=O)NC(CO)CO)C2 [Example 125, hydrochloride]
6. CC(C)Oc1ccc(-c2nc(-c3ccc4c(c3)CCN(C(=O)CN[C@@H](C)CO)CC4)no2)cc1C#N [Example 99, hydrochloride]
7. CC(C)Oc1ncc(-c2nc(-c3ccc4c(c3)CCN(C(CO)CO)CC4)no2)cc1C#N

Key:
1. ≤ 1 µM
2. ≤ 0.01 µM
3. ≤ 0.1 µM
4. ≤ 1 µM
5. ≤ 0.1 µM
6. ≤ 0.01 µM
7. ≤ 0.01 µM

// for each molecule in input: emit EC50
1. CCOc1ncc(-c2nc(-c3ccc4c(c3)CCN(C(CO)CO)CC4)no2)cc1C#N
2. CC(C)Oc1ccc(-c2nc(-c3ccc4c(c3)CCN(CC(=O)N3CC(O)C3)CC4)no2)cc1C#N [Example 93, hydrochloride]
3. Cc1c(-c2noc(-c3ccc(OC(C)C)c(C#N)c3)n2)ccc2c1CCN(CC(=O)N[C@@H](C)CO)CC2
4. Cc1c(-c2noc(-c3ccc(OC(C)C)c(C#N)c3)n2)ccc2c1CCN(CC(=O)NC(CO)CO)CC2

Key:
1. ≤ 1 µM
2. ≤ 0.01 µM
3. ≤ 0.1 µM
4. ≤ 0.1 µM

For each listed entry, give its EC50.
1. CC(C)Oc1ccc(-c2nc(-c3ccc4c(c3)CCN(CC(O)CO)CC4)no2)cc1C#N (stereo not drawn)
2. Cc1c(-c2noc(-c3ccc(OC(C)C)c(C#N)c3)n2)ccc2c1CCN(CC(=O)N[C@H](C)CO)C2 [Example 118, hydrochloride]
3. Cc1c(-c2noc(-c3ccc(OC(C)C)c(C#N)c3)n2)ccc2c1CCN(C[C@H](O)CO)C2 [Example 71, hydrochloride]
4. Cc1c(-c2noc(-c3ccc(OC(C)C)c(C#N)c3)n2)ccc2c1CCN(C(=O)CNC[C@@H](C)O)C2 [Example 129, hydrochloride]
5. N#Cc1cc(-c2nc(-c3ccc4c(c3)CCN(C[C@H](O)CO)CC4)no2)ccc1OCC(F)(F)F

Key:
≤ 0.1 µM
≤ 0.1 µM
≤ 0.1 µM
> 10 µM
≤ 0.1 µM
